# Test system: CYPSE (Flatsedge)
# Protocol Text: Preemergence weed control under flooded paddy conditions
# Format: in vivo, Cyperus serotinus
# Test Settings: 0.0313 kg/ha, rated 3-4 weeks after treatment
Observed Property: Herbicidal rating CYPSE
Give the figure by itself; no unit, no explanation.

Record CCOC(=O)CN1CC(=O)N(CC(=O)OCC)C1=Nc1cc(-n2c(=O)cc(C(F)(F)F)n(C)c2=O)c(F)cc1Cl . Reported Herbicidal rating CYPSE: 0.0

Herbicidal rating CYPSE in this record for CCOC(=O)CN1C(=O)C(Cc2ccccc2OC)SC1=Nc1cc(-n2c(=O)cc(C(F)(F)F)n(C)c2=O)c(F)cc1Cl (stereo not shown) : 0.0

The recorded Herbicidal rating CYPSE for entry CCOC(=O)CN1C(=O)C(CCO)S/C1=N/c1cc(-n2c(=O)cc(C(F)(F)F)n(C)c2=O)c(F)cc1Cl (stereo not shown) equals 2.0

Short answer for CCOC(=O)CN1C(=O)C2(CC2)SC1=Nc1cc(-n2c(=O)cc(C(F)(F)F)n(C)c2=O)c(F)cc1Cl : Herbicidal rating CYPSE was 0.0

====

# Tested on: CYPIR (Rice Flatsedge)
# Protocol Text: Preemergence weed control under flooded paddy conditions
# Type: in vivo, Cyperus iria
# Test Settings: 0.1250 kg/ha, rated 3-4 weeks after treatment
Please provide measured herbicidal effect rating, CYPIR for the entries that follow.
Please reply with the value in numeric form only.

Entry CC(C)COC(=O)CN1C(=O)CSC1=Nc1cc(-n2c(=O)cc(C(F)(F)F)n(C)c2=O)c(F)cc1Cl [Compound 121] , herbicidal effect rating, CYPIR reported as 8.0

Lookup result for CC(C)S(=O)(=O)NC(=O)CC1SC(=Nc2cc(-n3c(=O)cc(C(F)(F)F)n(C)c3=O)c(F)cc2Cl)N(C)C1=O (centres unmarked) [Compound 119] ; measured herbicidal effect rating, CYPIR: 8.5

Notebook: CCOC(=O)CN1C(=O)C(OC)SC1=Nc1cc(-n2c(=O)cc(C(F)(F)F)n(C)c2=O)c(F)cc1Cl (centres unmarked) [Compound 160] , herbicidal effect rating, CYPIR read as 6.0

herbicidal effect rating, CYPIR recorded for this compound, Cn1c(C(F)(F)F)cc(=O)n(-c2cc(N=C3SCC(=O)N3Cc3cc(Cl)cc(Cl)c3)c(Cl)cc2F)c1=O [Compound 150] , is 9.0

Form: compound = Cn1c(C(F)(F)F)cc(=O)n(-c2cc(N=C3SCC(=O)N3Cc3ccc(C(F)(F)F)cc3)c(Cl)cc2F)c1=O [Compound 141] ; herbicidal effect rating, CYPIR = 6.0

Given item Cn1c(C(F)(F)F)cc(=O)n(-c2cc(N=C3SCC(=O)N3CC(=O)OCC3CCCCC3)c(Cl)cc2F)c1=O [Compound 123] , the value recorded as its herbicidal effect rating, CYPIR is 9.0

So, Cn1c(C(F)(F)F)cc(=O)n(-c2cc(N=C3SCC(=O)N3C3CCC3)c(Cl)cc2F)c1=O [Compound 168] ? Its herbicidal effect rating, CYPIR was 0.0

The compound listed as CCOC(=O)CN1C(=O)C(CC(=O)O)SC1=Nc1cc(N2C(=O)CC(C(F)(F)F)CC2=O)c(F)cc1Cl (centres unmarked) [Compound 170] has a reported herbicidal effect rating, CYPIR of 9.0

====

Task for the reader: assign each of the following compounds its reported Herbicidal rating ORYSAT.
# System: ORYSAT (Rice, Tebonnet)
# Protocol Text: Postemergence herbicidal evaluation
# Assay type: in vivo, Oryza sativa, (L.) Tebonnet
# Test Settings: postemergence, rate 0.0313 kg/ha

In plain terms, CCOC(=O)CN1C(=O)C(C(=O)OC)SC1=Nc1cc(-n2c(=O)cc(C(F)(F)F)n(C)c2=O)c(F)cc1Cl (stereo not shown) has a documented Herbicidal rating ORYSAT of 2.0

// Herbicidal rating ORYSAT value for CC(C)S(=O)(=O)NC(=O)CC1SC(=Nc2cc(-n3c(=O)cc(C(F)(F)F)n(C)c3=O)c(F)cc2Cl)N(C)C1=O (stereo not shown) : 2.0

The reported value for Cn1c(C(F)(F)F)cc(=O)n(-c2cc(N=C3SCC(=O)N3C3CCC3)c(Cl)cc2F)c1=O in terms of Herbicidal rating ORYSAT is 1.5

Data point: Cn1c(C(F)(F)F)cc(=O)n(-c2cc(N=C3SCC(=O)N3C3CCCC3)c(Cl)cc2F)c1=O ; Herbicidal rating ORYSAT = 0.5

// recorded Herbicidal rating ORYSAT for Cn1c(C(F)(F)F)cc(=O)n(-c2cc(N=C3SCC(=O)N3Cc3cccnc3)c(Cl)cc2F)c1=O : 3.0

Please fill in: Herbicidal rating ORYSAT reported for CC(C)N1C(=O)CSC1=Nc1cc(-n2c(=O)cc(C(F)(F)F)n(C)c2=O)c(F)cc1Cl = 4.0

Quick note, Herbicidal rating ORYSAT for C=CCN1C(=O)C(CC(=O)NS(=O)(=O)CC)SC1=Nc1cc(-n2c(=O)cc(C(F)(F)F)n(C)c2=O)c(F)cc1Cl (stereo not shown) landed at 0.5
